- Test system: T-47D breast
- Measurement Description: NCI tumour cell line growth inhibition, 48 h
Outcome Measure: TGI

TGI reported for this compound CC(=O)Oc1ccc2c(c1)CC[C@@H]1C2[C@@H](O[N+](=O)[O-])C[C@@]2(C)C1CC[C@@H]2O (stereo not given in full) : > 100 µM

Form field TGI, entry "COc1ccc(-c2cn3ccnc3c(-c3ccc4ncn(C5CCCCC5)c4c3)n2)cc1" : 4.5 µM

// TGI lookup, compound = "COC(=O)/C=C1/OC(c2ccccc2)=C(Cl)C1=O" , result: > 56.6 µM

Noted for CCN(CC)CC(C)Nc1ccc(C)c2sc3ccccc3c(=O)c12 (stereo not given) : its TGI reads 19.4 µM

Entry O=C(O)C(Cc1ccc(O)c([N+](=O)[O-])c1)N1C(=O)c2ccccc2C1=O (stereo not given) , TGI reported as > 100 µM

====

- Test system: OVCAR-3 ovarian
Reply using exactly one outcome from 1 for active, -1 for inactive

Each compound tested received a call. Report the one for "COc1cccc2c(=O)c3c(sc12)c(NCCCN)nc1ccccc13" .
-1

Returns: the outcome recorded for "Cc1ccc(-c2cc3nc(-c4ccccc4)nc(C(Cl)Cl)n3n2)cc1" in this assay.
-1

What outcome does the record of this test show for "O=c1c(OC/C(=N/O)c2ccccc2)c(-c2ccccc2)oc2ccccc12" ?
-1

Dear all, I need the recorded test outcome for CC(O)C(NC(=O)C(CS)NC(=O)C(CO)NC(=O)C(CCCCN)NC(=O)C(Cc1c[nH]c2ccccc12)NC(=O)C(Cc1ccc(O)cc1)NC(=O)C(CS)NC(=O)C(N)Cc1ccccc1)C(N)=O (configuration not stated) , thank you.
-1

For "CN(C)CCNc1cccc2sc3ccc(O)cc3c(=O)c12" , which call appears in the assay record?
-1

For N#CC1C(N)=NNC1c1ccc(-c2ccc(-c3nc4ccccc4o3)cc2)o1 (configuration not stated) , which call appears in the assay record?
-1

In this assay, the call recorded for "CC/C=C\C[C@H](O)C/C=C1/C(=O)C=C[C@@H]1C/C=C\CCCC(N)=O" was what?
-1

What call does the record list for "CCCCc1cc(O)ccc1O" ?
-1

What classification did "Cc1ccc(S(=O)(=O)NCCN2c3nc4ccccc4cc3Sc3cc4ccccc4nc32)cc1" end up with in this test?
-1

Fill in: this test's call for OC1CCC(Oc2cccc3cnc(Nc4ccc5nc[nH]c5c4)nc23)CC1 (configuration not stated) is ___
1

Which outcome was assigned to "O=C1C=C(c2cc(Br)c(O)c(Br)c2)/C(=C/c2cc(Br)c(O)c(Br)c2)O1" in this test?
-1

So what was the verdict on "O=C1NC(=O)C(c2ccccc2Cl)=C1Nc1cccc(O)c1" in this test?
-1

====

- Test system: HT29 colon
- Measurement Description: NCI tumour cell line growth inhibition, 48 h
Exercise: for every item that follows, state its recorded TGI.

Record COc1cccc(/C=C/C2=NN(c3cccc(S(=O)(=O)O)c3)C3(C2)SCC(=O)N3c2nc3ccccc3s2)c1 (centres undefined) . Reported TGI: > 100 µM

According to the records, this compound C=CCN(N=O)C(=O)N(CCC)CCCC(NC(C)=O)C(=O)NCc1ccccc1 (centres undefined) displays TGI of > 100 µM

TGI in this record for "CN(C)Cc1cc(N=Nc2ccc(Cl)c(Cl)c2)ccc1O" : 20.4 µM

Note to self: TGI recorded for "Clc1ccc(OCc2nnc(CCCCCCCCc3nnc(COc4ccc(Cl)cc4Cl)o3)o2)c(Cl)c1" was > 100 µM

Given item "CC(C)(C)N=CN1CCC(C(c2ccccc2)c2ccccc2)CC1" , the value recorded as its TGI is 56.5 µM

Record Nc1ncnc2c1ncn2C1OC(C(=O)O)C(O)C1O (centres undefined) , field TGI: > 100 µM

# TGI (compound: "CN(C)c1ccc(C(c2ccc(N(C)C)cc2)c2ccc([N+](=O)[O-])cc2)cc1" ) is > 100 µM

Sure, the documented TGI for "O=C(Nc1ccc(Br)cc1)c1cc(Br)cc(Br)c1O" is 22.7 µM

Data point: "Cc1cc(O)cc(C)c1/C=C/c1cncc(C(=O)N(C)C)c1" ; TGI = > 25 µM

"O=S(=O)(O)c1ccc2cc(N=Nc3cc(S(=O)(=O)O)c4cccnc4c3O)ccc2c1" yielded TGI of > 100 µM

Short answer for "CN(C)Cc1cc(C(=O)O)cc(CN(C)C)c1O" : TGI was > 100 µM

Field TGI (entry COc1cc(C2c3cc4c(cc3OC(N3CCOCC3)C2C)OCO4)cc(OC)c1O (centres undefined) ) reads 27.7 µM

The reported TGI of the compound "CCCCc1cc(O)ccc1O" was > 100 µM

Item: "O=C1c2cccc3cc([N+](=O)[O-])cc(c23)C(=O)N1CCCN1CCN(CCCN2C(=O)c3cccc4cc([N+](=O)[O-])cc(c34)C2=O)CC1" | TGI: > 100 µM

Lab book: TGI of S=C1CC(c2ccc(Cl)cc2)Sc2ccccc2N1 (centres undefined) noted as > 100 µM

Per the record, "O=C1NC(N2CCOCC2)=N/C1=C\c1ccccc1O" has TGI of > 100 µM

Record "NC(N)=NNC(=O)C(=O)O" , field TGI: > 100 µM

Entry "CN(C)CCOc1ccc(-c2c(Oc3ccc(Cl)cc3)c(=O)oc3ccccc23)cc1" ; TGI = > 38.7 µM

The measured TGI associated with "O=C(O)c1nnsc1COCc1ccccc1" reads > 100 µM

Query "CN(C)CN1C(=O)S/C(=C2\C(=O)N(CN(C)C)c3ccccc32)C1=O" yields TGI of > 100 µM

// field: TGI; key: "CCOC(=O)C(=O)Nc1c(C)cccc1CC" ; value = > 100 µM

What the record says about "O=C1/C(=C\c2cccs2)Oc2ccccc21" : TGI is > 100 µM

Reported TGI for c1cncc(C2c3[nH]c4ccccc4c3CCN2CCN2CCCCC2)c1 (centres undefined) was > 100 µM

So for "O=[N+]([O-])/C=C\c1ccc2c(c1)OCO2" , the logged TGI turned out to be 4.89 µM

Reported TGI ( O=C1CC(c2cccc(Cl)c2)n2cccc21 (centres undefined) ) = > 100 µM

Please fill in: TGI reported for "CN(C)CCNC(=O)c1cc([N+](=O)[O-])cc2ccc(-c3ccccc3)nc12" = 40 µM

Briefly, TGI measured for "Cc1ccc2c(c1)sc(-c1ccc(N(C)C)cc1)[n+]2C" : > 37.9 µM

The measured TGI associated with NC1CCC(c2cc3ccccc3s2)(N2CCCCC2)CC1 (centres undefined) reads 2.45 µM

The compound listed as "Cn1c(=O)c2c(nc3n2CCC(=O)N3)n(C)c1=O" shows TGI equal to > 100 µM

TGI reading for "COC(=O)c1ccc(OCc2ccc3oc(=O)c(-c4ccccc4)nc3c2)cc1" : > 100 µM

TGI reported for this compound Cc1ccc(C)c(NC(=O)/C(=N\NC(N)=S)C(C#N)c2ccccc2)c1 (centres undefined) : > 100 µM

Value of TGI reported for the compound "CCOC(=O)c1c2ccc(/C=C/C(=O)OC)ccc-2c(C(=O)OCC)c1N" is > 100 µM

Note to self: TGI recorded for CCCN(CCCCC(NC(C)=O)C(=O)NCc1ccccc1)C(=O)NC (centres undefined) was > 100 µM

For record "O=C1NC(=O)C(c2ccccc2Cl)=C1Nc1cccc(O)c1" the listed TGI is > 25 µM

Data point: N#CC(c1ccccc1)c1cccc2ccccc12 (centres undefined) ; TGI = > 100 µM

Value of TGI reported for the compound "CC(=O)O[C@H]1/C(=C/c2ccc(N(C)C)cc2)C[C@H]2[C@@H]3CC=C4C[C@@H](N5CCCC5)CC[C@]4(C)[C@H]3CC[C@]12C" is > 100 µM

Looking up "c1ccc(N=NNNc2ccc(-c3nc4ccccc4[nH]3)cc2)cc1" , I see its TGI listed as 94.7 µM

Data point: "CC(=O)O/C(C)=C\C(=O)O/N=C(\N)c1ccc(C)cc1" ; TGI = > 100 µM

The compound listed as CC(SC1=CC(=O)c2c(O)ccc(O)c2C1=O)C(=O)O (centres undefined) shows TGI equal to > 100 µM

Recorded result, "CC[C@@]1(OC(=O)CCC(=O)O)C(=O)OCc2c1cc1n(c2=O)Cc2cc3ccccc3nc2-1" , TGI: > 33.6 µM

TGI reading for "CCC(=O)N1C/C(=C/c2ccc(OC)cc2)C(=O)/C(=C/c2ccc(OC)cc2)C1" : 4.13 µM

Short answer for CCOC(OC1=C(C#N)CCC1)C(CC)[Se]c1ccccc1 (centres undefined) : TGI was 80.5 µM

Reported TGI ( "Cc1ccc(S(=O)(=O)NCCN2c3nc4ccccc4cc3Sc3cc4ccccc4nc32)cc1" ) = > 100 µM

For this compound ( "COc1ccc(-c2cc(-c3ccc(Nc4ccnc5cc(Cl)ccc45)cc3)nc(N)c2C#N)c2ccccc12" ), measured TGI is > 100 µM
